Recorded inhibition at 1 µM by entry
target: human hNET (Homo sapiens); construct: expressed in transfected cells; host or cells: MDCK-Net6 (MDCK cells stably transfected with hNET); assay: Norepinephrine (NE) uptake assay in MDCK-Net6 cells; format: cell-based; conditions: 1 μM test compound; [3H]NE uptake, MDCK-Net6 cells stably transfected with hNET
Sequence (P23975 whole entry): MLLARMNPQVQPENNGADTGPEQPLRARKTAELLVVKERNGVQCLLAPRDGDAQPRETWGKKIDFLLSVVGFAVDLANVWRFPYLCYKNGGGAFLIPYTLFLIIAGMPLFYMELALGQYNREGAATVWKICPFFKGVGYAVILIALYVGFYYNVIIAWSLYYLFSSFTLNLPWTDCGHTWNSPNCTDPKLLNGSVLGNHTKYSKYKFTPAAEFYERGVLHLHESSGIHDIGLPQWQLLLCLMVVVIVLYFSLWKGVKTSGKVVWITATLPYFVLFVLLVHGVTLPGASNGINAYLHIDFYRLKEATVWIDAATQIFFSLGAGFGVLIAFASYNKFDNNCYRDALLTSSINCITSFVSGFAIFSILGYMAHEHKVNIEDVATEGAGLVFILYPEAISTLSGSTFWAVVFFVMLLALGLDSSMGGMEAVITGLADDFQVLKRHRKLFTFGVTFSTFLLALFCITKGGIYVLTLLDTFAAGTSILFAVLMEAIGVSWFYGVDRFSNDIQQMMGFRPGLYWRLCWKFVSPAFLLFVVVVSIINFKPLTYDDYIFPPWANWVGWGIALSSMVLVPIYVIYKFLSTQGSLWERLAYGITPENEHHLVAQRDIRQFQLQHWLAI
Counter-ions that a name gives are not always drawn.

[
  {
    "compound": "COc1ccc(C(CN2CCNCC2)C2(O)CCCCCCC2)cc1Br (centres unmarked) [Example 38, dihydrochloride]",
    "inhibition at 1 µM": "42%"
  },
  {
    "compound": "CN1CCN(CC(c2cccc(F)c2)C2(O)CCC2)CC1 (centres unmarked) [Example 29, dihydrochloride]",
    "inhibition at 1 µM": "12%"
  },
  {
    "compound": "OC1(C(CN2CCNCC2)c2cccc(F)c2)CCC1 (centres unmarked) [Example 22, dihydrochloride]",
    "inhibition at 1 µM": "34%"
  },
  {
    "compound": "CN1CCN(CC(c2cccc(Cl)c2)C2(O)CCC2)CC1 (centres unmarked) [Example 24, dihydrochloride]",
    "inhibition at 1 µM": "34%"
  },
  {
    "compound": "OC1(C(CN2CCNCC2)c2ccc(Cl)cc2)CCCCC1 (centres unmarked) [Example 26, dihydrochloride]",
    "inhibition at 1 µM": "29%"
  },
  {
    "compound": "C[C@@H]1CN(CC(c2cccc(Cl)c2)C2(O)CCCCC2)C[C@H](C)N1 (some centres unmarked) [Example 2, dihydrochloride]",
    "inhibition at 1 µM": "97%"
  },
  {
    "compound": "OC1(C(CN2CCNCC2)c2ccc(Cl)cc2)CCC1 (centres unmarked) [Example 18, dihydrochloride]",
    "inhibition at 1 µM": "44%"
  },
  {
    "compound": "C[C@@H]1CN(CC(c2cccc(Cl)c2)C2(O)CCCCC2)CCN1 (some centres unmarked) [Example 5, dihydrochloride]",
    "inhibition at 1 µM": "94%"
  },
  {
    "compound": "CN1CCN(CC(c2cccc(C(F)(F)F)c2)C2(O)CCC2)CC1 (centres unmarked) [Example 15, dihydrochloride]",
    "inhibition at 1 µM": "51%"
  },
  {
    "compound": "OC1(C(CN2CCNCC2)c2ccc(Br)cc2)CCC1 (centres unmarked) [Example 12, dihydrochloride]",
    "inhibition at 1 µM": "55%"
  },
  {
    "compound": "OC1(C(CN2CCNCC2)c2cccc(Br)c2)CCCC1 (centres unmarked) [Example 16, dihydrochloride]",
    "inhibition at 1 µM": "51%"
  },
  {
    "compound": "OC1(C(CN2CCNCC2)c2ccc(Br)cc2)CCCCC1 (centres unmarked) [Example 17, dihydrochloride]",
    "inhibition at 1 µM": "46%"
  },
  {
    "compound": "OC1(C(CN2CCNCC2)c2cccc(Br)c2)CCCCCC1 (centres unmarked) [Example 7, dihydrochloride]",
    "inhibition at 1 µM": "86%"
  },
  {
    "compound": "OC1(C(CN2CCNCC2)c2cccc(Cl)c2)CCCC1 (centres unmarked) [Example 10, dihydrochloride]",
    "inhibition at 1 µM": "63%"
  },
  {
    "compound": "OC1(C(CN2CCNCC2)c2ccccc2F)CCC1 (centres unmarked) [Example 28, dihydrochloride]",
    "inhibition at 1 µM": "14%"
  },
  {
    "compound": "OC1(C(CN2CCNCC2)c2cccc(Br)c2)CCCCCCC1 (centres unmarked) [Example 37, dihydrochloride]",
    "inhibition at 1 µM": "28%"
  },
  {
    "compound": "CN1CCN(CC(c2ccccc2F)C2(O)CCC2)CC1 (centres unmarked) [Example 31, dihydrochloride]",
    "inhibition at 1 µM": "-6%"
  }
]
